Origin of measurements: patent US20160333065A1

- TARGET OR SYSTEM: T1, HLA-B60 (B*4001) (human)
- T1 construct: MHC class I molecule on mild-acid-stripped EBV-transformed B cells (DKB)
- ASSAY TEXT: cellular competition binding assay on acid-stripped B-LCL DKB, flow cytometry; competitor Fl-labeled reference peptide KESTC(Fl)HLVL
MEASURE: IC50

// query For the binder YEDIHGTLHL [PRAME 448-457 YEDIHGTLHL] , what IC50 is on record?
// result < 1000 nM
